# TESTED_TARGET: CCK receptor (pancreas) (Rattus norvegicus, UniProt P30551)
# Construct: The whole pancreas was dissected free of fat tissue and was homogenized; from tissue; host or cells: rat pancreas membranes (Sprague-Dawley)
# Sequence (P30551 whole entry): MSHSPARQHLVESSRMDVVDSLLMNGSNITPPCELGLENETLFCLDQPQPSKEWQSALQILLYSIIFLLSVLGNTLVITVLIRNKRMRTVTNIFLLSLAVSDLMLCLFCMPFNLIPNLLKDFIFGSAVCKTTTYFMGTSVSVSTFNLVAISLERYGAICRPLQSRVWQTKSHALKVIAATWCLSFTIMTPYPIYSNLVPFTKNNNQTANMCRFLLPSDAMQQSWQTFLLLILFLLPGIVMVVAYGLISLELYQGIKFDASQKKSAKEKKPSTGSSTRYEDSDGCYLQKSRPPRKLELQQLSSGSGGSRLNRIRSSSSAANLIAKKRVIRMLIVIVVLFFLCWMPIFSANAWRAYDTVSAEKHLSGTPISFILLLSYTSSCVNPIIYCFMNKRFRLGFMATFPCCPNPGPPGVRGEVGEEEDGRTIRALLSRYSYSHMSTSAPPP
# EXPERIMENT: CCK Receptor Binding (Pancreas): inhibition of ^125 I-CCK-33 binding
# Parameters: species or system Male Sprague-Dawley rats
# REPORTED_CONDITIONS: IC50 ^125 I-CCK Pancreas, rat pancreas membranes, ^125 I-CCK-33, 37° C., 30 minutes
The following ranges of IC50 define the classes used here: class A: < 0.2 µM; class B: ≥ 0.2 µM and < 2 µM; class C: ≥ 2 µM

Here's what some known entries look like.
CCCCCc1ccc(C(=O)N[C@H]2N=C(c3ccccc3F)c3ccccc3N(C)C2=O)cc1 [Example 228]; class A
CCOC(=O)CN1C(=O)C(NC(=O)Cc2ccc(Cl)cc2)N=C(c2ccccc2)c2ccccc21 (stereo not shown) [Example 239]; class B
COc1ccc(NC(=O)NC2N=C(c3ccccc3)c3ccccc3N(C)C2=O)cc1 (stereo not shown) [Example 253]; class A
CN1CCN(C(=O)CN2C(=O)C(NC(=O)OCc3ccccc3)N=C(c3ccccc3)c3ccccc32)CC1 (stereo not shown) [Example 235]; class C
CN1C(=O)[C@@H](NC(=O)c2ccc(Br)cc2)N=C(c2ccccc2F)c2ccccc21 [Example 156]; class A

Turning now to a further compound:
Any idea which band O=C(N[C@H]1N=C(c2ccccc2)c2ccccc2NC1=O)c1cc2ccccc2[nH]1 [Example 187] is in?
class A

* * *

Quick reference for IC50 among some compounds
# TESTED_TARGET: CCK receptor (brain, cerebral cortex) (Cavia porcellus, UniProt H0VZC5)
# Construct: Cerebral cortex was dissected and used as a receptor source; from tissue; host or cells: guinea pig cerebral cortex membranes (male Hartley)
# Sequence (H0VZC5 1-426): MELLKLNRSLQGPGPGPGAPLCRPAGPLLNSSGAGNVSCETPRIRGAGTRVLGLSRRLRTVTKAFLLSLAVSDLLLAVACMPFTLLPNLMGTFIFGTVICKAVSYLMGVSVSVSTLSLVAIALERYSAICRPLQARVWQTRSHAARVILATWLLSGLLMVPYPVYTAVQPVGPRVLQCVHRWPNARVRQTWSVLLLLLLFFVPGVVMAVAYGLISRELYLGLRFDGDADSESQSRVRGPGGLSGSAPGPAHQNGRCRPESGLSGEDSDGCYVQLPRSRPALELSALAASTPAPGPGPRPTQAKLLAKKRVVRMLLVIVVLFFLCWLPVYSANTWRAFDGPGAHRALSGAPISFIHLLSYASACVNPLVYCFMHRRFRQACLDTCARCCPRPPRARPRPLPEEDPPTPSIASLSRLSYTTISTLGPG
# EXPERIMENT: biochemical
# Assay type: binding, Male Hartley guinea pigs
# REPORTED_CONDITIONS: IC50 ^125 I-CCK Brain, guinea pig cerebral cortex, ^125 I-CCK-33, 25° C., 2 hours
Value expressed in µM; do not type the unit.

Reference set (2 entries):
O=C(NC1N=C(c2ccccc2F)c2ccccc2NC1=O)c1ccc[nH]1 (racemic); 100
O=C(NCC1N=C(c2ccccc2F)c2ccccc2NC1=O)OCc1ccccc1 (racemic); 100

Test system CCK receptor (brain, cerebral cortex) (Cavia porcellus, UniProt H0VZC5); read-out IC50; what value for CN1C(=O)C(NC(=O)c2cc3ccccc3[nH]2)N=C(c2ccccc2F)c2ccccc21 (racemic) [Example 81a] ?
0.3

Test system CCK receptor (brain, cerebral cortex) (Cavia porcellus, UniProt H0VZC5); read-out IC50; what value for CC(C)(C)c1ccc(C(=O)NC2N=C(c3ccccc3)c3ccccc3NC2=O)cc1 (racemic) ?
100

Test system CCK receptor (brain, cerebral cortex) (Cavia porcellus, UniProt H0VZC5); read-out IC50; what value for O=C(NCC1N=C(c2ccccc2F)c2ccccc2NC1=O)c1ccsc1 (racemic) ?
100

Test system CCK receptor (brain, cerebral cortex) (Cavia porcellus, UniProt H0VZC5); read-out IC50; what value for O=C(NC1N=C(c2ccccc2F)c2ccccc2NC1=S)OCc1ccccc1 (racemic) ?
10

* * *

Quick reference for IC50 among some compounds
# TESTED_TARGET: CCK receptor (brain, cerebral cortex) (Cavia porcellus)
# Construct: Cerebral cortex was dissected and used as a receptor source; from tissue; host or cells: guinea pig cerebral cortex membranes (male Hartley)
# EXPERIMENT: biochemical
# Assay type: binding, Male Hartley guinea pigs
# REPORTED_CONDITIONS: IC50 ^125 I-CCK Brain, guinea pig cerebral cortex, ^125 I-CCK-33, 25° C., 2 hours

Reference set (4 entries):
O=C1Nc2ccc(Cl)cc2C(c2ccccc2Cl)=N[C@@H]1Cc1c[nH]c2ccccc12; > 100 µM
O=C(NC1N=C(c2ccccc2)c2ccccc2NC1=O)C1Cc2ccccc2N1 (stereo not drawn); > 40 µM
O=C(NC1N=C(c2ccccc2F)c2ccccc2NC1=O)c1ccccc1 (racemic); > 40 µM
O=C1Nc2ccc(Cl)cc2C(c2ccccc2)=NC1Cc1cccc2ccccc12 (racemic); 100 µM

Now examine the next entry.
GET /values?readout=IC50&item= CC(C)(C)OC(=O)N[C@@H](Cc1c[nH]c2ccccc12)C(=O)NC1N=C(c2ccccc2)c2ccccc2NC1=O (mixture of isomers)
20 µM
